target-or-test-system: Serine/threonine-protein kinase Nek2 (Homo sapiens) (UniProt P51955)
Sequence (P51955 whole entry): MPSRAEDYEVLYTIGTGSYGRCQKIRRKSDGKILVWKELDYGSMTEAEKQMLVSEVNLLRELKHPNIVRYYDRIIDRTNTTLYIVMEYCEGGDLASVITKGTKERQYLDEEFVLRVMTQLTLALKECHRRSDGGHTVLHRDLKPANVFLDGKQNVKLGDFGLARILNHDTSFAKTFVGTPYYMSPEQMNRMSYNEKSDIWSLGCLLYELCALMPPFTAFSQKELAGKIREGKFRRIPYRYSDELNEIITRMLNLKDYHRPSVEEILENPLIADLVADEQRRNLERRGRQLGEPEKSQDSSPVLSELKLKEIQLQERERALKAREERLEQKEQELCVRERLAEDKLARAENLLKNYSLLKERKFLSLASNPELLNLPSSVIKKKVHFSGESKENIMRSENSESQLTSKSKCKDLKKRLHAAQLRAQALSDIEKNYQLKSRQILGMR
setup-conditions: at 1 µM
Entries and their measured inhibition follow.
Record the value in %, omitting the unit from your answer.

Cc1cccc2c1NC(=O)/C2=N\Nc1ccc(S(N)(=O)=O)cc1 : 2.64
COC(=O)c1sc(-n2cnc3cc(OC)c(OC)cc32)cc1OCc1ccccc1C(F)(F)F : 3.83
COc1cc2c(cc1Nc1nc(Nc3ccsc3C(N)=O)c3cc[nH]c3n1)N(C(=O)CN(C)C)CCC2(C)C : 7.22

INPUT: Give the reported inhibition for CC1=C(C(=O)Nc2cc(Cl)c3[nH]ncc3c2)C(c2ccc(C(F)(F)F)cc2)CC(=O)N1 (stereo not given) (system: Serine/threonine-protein kinase Nek2 (Homo sapiens) (UniProt P51955)).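 Also: reported values are mean percent inhibition of NEK2.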
OUTPUT: 4.83

INPUT: Entry to check: `Cc1cccc(Nc2ncc(-c3ccccc3)o2)c1`
OUTPUT: 3.62

----------
target-or-test-system: RAC-beta serine/threonine-protein kinase (Homo sapiens) (UniProt P31751)
Sequence (P31751 whole entry): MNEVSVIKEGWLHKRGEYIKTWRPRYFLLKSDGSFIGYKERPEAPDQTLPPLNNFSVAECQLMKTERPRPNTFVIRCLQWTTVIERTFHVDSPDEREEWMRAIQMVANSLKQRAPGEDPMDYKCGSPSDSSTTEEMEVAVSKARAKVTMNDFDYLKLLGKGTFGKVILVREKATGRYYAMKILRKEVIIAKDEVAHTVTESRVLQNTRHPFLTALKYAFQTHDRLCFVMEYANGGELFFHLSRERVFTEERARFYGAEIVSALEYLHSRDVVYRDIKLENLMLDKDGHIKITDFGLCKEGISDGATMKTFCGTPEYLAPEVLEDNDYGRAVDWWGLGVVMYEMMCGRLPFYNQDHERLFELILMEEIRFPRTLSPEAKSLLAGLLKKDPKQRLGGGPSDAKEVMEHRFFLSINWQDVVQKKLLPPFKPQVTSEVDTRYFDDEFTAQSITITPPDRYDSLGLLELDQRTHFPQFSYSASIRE
setup-conditions: at 1 µM
Description: GSK_PKIS: AKT2 mean inhibition at 1 uM [Nanosyn]
Label fulfilled when inhibition is at or above 2%; anything below gets not fulfilled.

N#Cc1c(NC(=O)CN2CCOCC2)sc2c1CCCC2 : not fulfilled
Cc1cccc2c1NC(=O)/C2=N\Nc1ccc(S(N)(=O)=O)cc1 : not fulfilled
CCCN1CCC(c2ccc(Nc3nc(Nc4cc(F)ccc4C(N)=O)c4cc[nH]c4n3)c(OC)c2)CC1 : not fulfilled
CCn1cc(-c2ccnc3[nH]ccc23)c(-c2cccc(NC(=O)Nc3ccc(OCc4ccccc4)cc3)c2)n1 : fulfilled

Please examine the following record next.
INPUT: Say whether `CC(=O)NCc1cccc(C#Cc2cncnc2Nc2ccc(OCc3cccc(F)c3)c(Cl)c2)c1` shows inhibition of 2% or more.
OUTPUT: not fulfilled

----------
target-or-test-system: Cyclin-dependent kinase 5 (Homo sapiens);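 also: mean value of inhibition, with the enzyme tested as CDK5/p35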
setup-conditions: at 1 µM
Entries and their measured inhibition follow.
Record the value in %, omitting the unit from your answer.

O=C(Nc1n[nH]c2cc(-c3ccc(F)cc3)ccc12)C1CC1 : 3.03

INPUT: // returns reported inhibition for input `NS(=O)(=O)c1ccc(N/N=C2\C(=O)Nc3ccc4ncccc4c32)cc1`
OUTPUT: 83.4

INPUT: Entry to check: `CCn1cc(-c2ccnc3[nH]ccc23)c(-c2cccc(NC(=O)Nc3ccc(OCc4ccccc4)cc3)c2)n1`
OUTPUT: -0.93

INPUT: Entry to check: `NS(=O)(=O)c1ccc(Nc2ncc(-c3ccccc3)o2)cc1`
OUTPUT: 70.3

INPUT: Entry to check: `CCOc1ccc2c(-c3ccnc(Nc4cccc(C(F)(F)F)c4)n3)cnn2n1`
OUTPUT: 3.67

INPUT: Entry to check: `N#Cc1c(NC(=O)CN2CCOCC2)sc2c1CCCC2`
OUTPUT: 5.34

INPUT: Entry to check: `CN(C)CCOc1ccc(-c2nc(-c3ccncc3)c(-c3ccc4c(c3)CC/C4=N\O)[nH]2)cc1`
OUTPUT: 5.88

INPUT: Entry to check: `COC(=O)c1sc(-n2cnc3cc(OC)c(OC)cc32)cc1OCc1ccccc1C(F)(F)F`
OUTPUT: 2.46

INPUT: Entry to check: `CCCN(CCS(C)(=O)=O)Cc1ccc(-c2ccc3ncnc(Nc4ccc(OCc5cccc(F)c5)c(Cl)c4)c3c2)o1`
OUTPUT: 6.83

INPUT: Entry to check: `Cc1cccc(Nc2ncc(-c3ccccc3)o2)c1`
OUTPUT: 7.89

INPUT: Entry to check: `CC(=O)NCc1cccc(C#Cc2cncnc2Nc2ccc(OCc3cccc(F)c3)c(Cl)c2)c1`
OUTPUT: 5.29

INPUT: Entry to check: `CCN1CCC(CC(=O)Nc2n[nH]c3nnc(-c4cccc(F)c4F)cc23)CC1`
OUTPUT: 7.07

INPUT: Entry to check: `Nc1nc(-c2ccc(F)cc2)c(-c2ccc3ncccc3n2)s1`
OUTPUT: 7.28

INPUT: Entry to check: `COc1ccc(CNC(=O)c2ccc(-c3cc(-c4nnc(C)o4)ccc3C)cc2)cc1`
OUTPUT: 1.19

INPUT: Entry to check: `NC(=O)c1sc(-n2cnc3ccc(C(F)(F)F)cc32)cc1OCc1ccccc1Br`
OUTPUT: -0.71

----------
target-or-test-system: Maternal embryonic leucine zipper kinase (Homo sapiens) (UniProt Q14680);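 also: each value is the mean inhibition of MELK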
Sequence (Q14680 whole entry, looked up): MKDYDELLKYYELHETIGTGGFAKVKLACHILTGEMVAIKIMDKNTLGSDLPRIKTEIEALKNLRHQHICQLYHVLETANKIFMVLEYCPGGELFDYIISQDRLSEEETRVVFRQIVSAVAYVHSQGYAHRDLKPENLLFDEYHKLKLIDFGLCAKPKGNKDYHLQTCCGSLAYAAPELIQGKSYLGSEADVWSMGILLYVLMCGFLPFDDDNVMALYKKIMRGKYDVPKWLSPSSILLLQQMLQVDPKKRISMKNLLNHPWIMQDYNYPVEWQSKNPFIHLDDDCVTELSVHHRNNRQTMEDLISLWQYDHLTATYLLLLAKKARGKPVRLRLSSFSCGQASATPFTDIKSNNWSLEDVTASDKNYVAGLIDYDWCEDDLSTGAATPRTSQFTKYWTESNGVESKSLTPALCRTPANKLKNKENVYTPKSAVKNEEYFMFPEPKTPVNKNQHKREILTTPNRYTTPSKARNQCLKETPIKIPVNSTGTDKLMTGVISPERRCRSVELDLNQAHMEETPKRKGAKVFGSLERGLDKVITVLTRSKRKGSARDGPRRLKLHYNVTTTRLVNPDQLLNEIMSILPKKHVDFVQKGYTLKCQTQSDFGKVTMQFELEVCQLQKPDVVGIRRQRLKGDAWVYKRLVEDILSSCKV
setup-conditions: at 1 µM
Label Criterion met when inhibition is at or above 3%; anything below gets Criterion not met.

Example results:
CNC(=O)c1cc(-c2ccc(F)cc2)cc(-c2ccc(S(=O)(=O)N3CCCC3)cc2)c1N : Criterion met
NS(=O)(=O)c1ccc(N/N=C2\C(=O)Nc3ccc4ncccc4c32)cc1 : Criterion met
CS(=O)(=O)CCNCc1ccc(-c2ccc3ncnc(Nc4ccc(OCc5ccccc5)c(C(F)(F)F)c4)c3c2)o1 : Criterion not met

Please examine the following record next.
INPUT: Say whether `CCCN1CCC(c2ccc(Nc3nc(Nc4cc(F)ccc4C(N)=O)c4cc[nH]c4n3)c(OC)c2)CC1` shows inhibition of 3% or more.
OUTPUT: Criterion met

----------
Entries and their measured inhibition follow.
target-or-test-system: Testis-specific serine/threonine-protein kinase 1 (Homo sapiens);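 also: mean percent inhibition of TSSK1, from the GSK PKIS screening dataset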
setup-conditions: at 0.1 µM
Record the value in %, omitting the unit from your answer.

Solved entries:
N#Cc1c(NC(=O)CN2CCOCC2)sc2c1CCCC2 : -0.56
CCn1c(-c2nonc2N)nc2c(C#CC(C)(C)O)nc(OC[C@H](N)c3ccccc3)cc21 : 7.96
CC(=O)Nc1cccc(C#Cc2cncnc2Nc2ccc(OCc3cccc(F)c3)c(Cl)c2)c1 : 1.34
COC(=O)c1sc(-n2cnc3cc(OC)c(OC)cc32)cc1OCc1ccccc1C(F)(F)F : 3.74
CC(=O)NCc1cccc(C#Cc2cncnc2Nc2ccc(OCc3cccc(F)c3)c(Cl)c2)c1 : 1.79

INPUT: // returns reported inhibition for input `O=C(Nc1n[nH]c2cc(-c3ccc(F)cc3)ccc12)C1CC1`
OUTPUT: 3.31

INPUT: Entry to check: `NC(=O)c1sc(-n2cnc3ccc(C(F)(F)F)cc32)cc1OCc1ccccc1Br`
OUTPUT: 3.44

INPUT: Entry to check: `CN1CCC(n2cnc(-c3ccc(F)cc3)c2-c2ccnc(Nc3ccccc3)n2)CC1`
OUTPUT: 3.05

----------
Entries and their measured inhibition follow.
target-or-test-system: Tyrosine-protein kinase JAK3 (Homo sapiens) (UniProt P52333);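 also: values reported are mean percent inhibition of JAK3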
Sequence (whole entry): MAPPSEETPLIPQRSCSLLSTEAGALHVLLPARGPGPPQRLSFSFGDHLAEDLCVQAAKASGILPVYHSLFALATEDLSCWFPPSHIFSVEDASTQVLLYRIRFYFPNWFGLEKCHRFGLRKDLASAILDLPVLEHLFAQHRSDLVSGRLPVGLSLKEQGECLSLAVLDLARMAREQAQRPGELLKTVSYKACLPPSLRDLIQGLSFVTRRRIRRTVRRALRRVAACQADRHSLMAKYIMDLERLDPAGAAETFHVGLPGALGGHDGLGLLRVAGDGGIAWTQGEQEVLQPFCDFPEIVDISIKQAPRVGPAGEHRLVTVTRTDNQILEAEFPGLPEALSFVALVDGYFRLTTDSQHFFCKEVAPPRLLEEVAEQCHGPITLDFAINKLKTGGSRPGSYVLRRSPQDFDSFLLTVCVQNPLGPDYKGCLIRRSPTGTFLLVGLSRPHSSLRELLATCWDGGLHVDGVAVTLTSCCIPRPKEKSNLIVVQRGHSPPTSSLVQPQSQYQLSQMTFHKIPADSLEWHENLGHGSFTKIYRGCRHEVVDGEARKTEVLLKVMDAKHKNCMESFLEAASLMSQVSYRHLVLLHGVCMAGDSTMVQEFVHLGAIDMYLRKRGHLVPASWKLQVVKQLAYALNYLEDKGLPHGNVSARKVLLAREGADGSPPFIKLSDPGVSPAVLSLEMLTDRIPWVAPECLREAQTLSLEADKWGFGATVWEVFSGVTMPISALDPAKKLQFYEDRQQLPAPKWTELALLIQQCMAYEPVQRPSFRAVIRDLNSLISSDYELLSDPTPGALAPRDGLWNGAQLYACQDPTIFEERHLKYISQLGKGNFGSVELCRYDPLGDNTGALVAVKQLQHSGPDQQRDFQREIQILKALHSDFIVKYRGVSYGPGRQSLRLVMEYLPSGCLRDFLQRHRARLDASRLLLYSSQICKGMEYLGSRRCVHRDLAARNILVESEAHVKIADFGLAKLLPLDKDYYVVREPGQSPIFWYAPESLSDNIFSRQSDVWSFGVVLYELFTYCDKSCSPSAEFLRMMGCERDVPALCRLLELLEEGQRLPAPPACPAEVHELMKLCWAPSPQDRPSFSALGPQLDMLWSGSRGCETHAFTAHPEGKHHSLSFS
setup-conditions: at 0.1 µM
Record the value in %, omitting the unit from your answer.

Solved entries:
O=S(=O)(CCNCc1ccc(-c2ccc3ncnc(Nc4ccc(OCc5cccc(F)c5)c(Cl)c4)c3c2)o1)c1ccccc1 : -3.52
Fc1cccc(COc2ccc(Nc3ncnc4sc(-c5ccco5)cc34)cc2Cl)c1 : -3.93
COc1ccc(-c2nn3ncccc3c2-c2ccnc(Nc3ccc4c(c3)OCCO4)n2)cc1 : -1.66
CCn1cc(-c2ccnc3[nH]ccc23)c(-c2cccc(NC(=O)Nc3ccc(OCc4ccccc4)cc3)c2)n1 : -1.38
CCn1c(-c2nonc2N)nc2ccccc21 : -0.66

INPUT: // returns reported inhibition for input `COC(=O)Nc1nc2ccc(S(=O)(=O)c3ccc(NC(=O)Nc4cc(C(F)(F)F)ccc4F)cc3)cc2[nH]1`
OUTPUT: -1.12

INPUT: Entry to check: `CN1CCC(n2cnc(-c3ccc(F)cc3)c2-c2ccnc(Nc3ccccc3)n2)CC1`
OUTPUT: -0.54

INPUT: Entry to check: `COc1cc(N2CCN(C(C)C)CC2)ccc1Nc1nc(Nc2ccc(F)cc2C(N)=O)c2cc[nH]c2n1`
OUTPUT: 0.12
